Origin of values: the NIST ThermoML archive (doi:10.1016/j.jct.2018.03.031)

# ASSAY METHOD TEXT: molar heat capacity at constant pressure
# REPORTED CONDITIONS: 308.15 K; 101.33 kPa; Liquid; Large sample (1 g) DSC
Exercise: state measured molar heat capacity at constant pressure for each of the molecules provided.
Numbers only, in J/K/mol.

molar heat capacity at constant pressure for CCn1cc[n+](C)c1.O=S(=O)([N-]S(=O)(=O)C(F)(F)F)C(F)(F)F is 530.7

Reported molar heat capacity at constant pressure for CCCCCCOS(=O)(=O)[O-].CC[n+]1ccn(C)c1 [3-ethyl-1-methyl-1H-imidazolium hexyl sulfate] was 520.2

The molecule listed as CCCCO [butan-1-ol] has a reported molar heat capacity at constant pressure of 184.5

Entry under test: COCC[N+]1(C)CCCC1.O=S(=O)([N-]S(=O)(=O)C(F)(F)F)C(F)(F)F . Its molar heat capacity at constant pressure was 586.5

API: the following record is the query input.
Given item CCCC[N+]1(C)CCCC1.O=S(=O)([O-])C(F)(F)F [1-butyl-1-methylpyrrolidinium trifluoromethanesulfonate] , the value recorded as its molar heat capacity at constant pressure is 447.8

###

# ASSAY METHOD TEXT: molar heat capacity at constant pressure
# REPORTED CONDITIONS: 333.15 K; 101.33 kPa; Liquid; Large sample (1 g) DSC
METRIC NAME: molar heat capacity at constant pressure (J/K/mol)
Numbers only, in J/K/mol.

Here are 2 compounds together with their reported answers.
// recorded molar heat capacity at constant pressure for CCn1cc[n+](C)c1.O=S(=O)([N-]S(=O)(=O)C(F)(F)F)C(F)(F)F : 540.2

Entry under test: CCCCO . Its molar heat capacity at constant pressure was 204.1

Consider now this further compound.
GET /value?item= COCC[N+]1(C)CCCC1.O=S(=O)([N-]S(=O)(=O)C(F)(F)F)C(F)(F)F &field=molar heat capacity at constant pressure returns 597.5
